Could you please report measured TGI for the items listed next?
system: RPMI-8226 leukemia; experiment: NCI tumour cell line growth inhibition, 48 h

QUERY: If you can, please state the reported TGI value of O=c1oc(-c2ccccc2)cn1-c1ccccc1 .
RESULT: > 100 µM

QUERY: Give the measured TGI of CN(c1ccc(NC(=O)Nc2c(Cl)cccc2Cl)cc1)c1ccnc(Nc2cccc(CS(C)(=O)=O)c2)n1 .
RESULT: > 22.7 µM

QUERY: Give its TGI value. Item: Nc1n[nH]c2cccc(C#Cc3cccc(NC(=O)c4cccc(C(F)(F)F)c4)c3)c12
RESULT: 21.5 µM

QUERY: Quick one: TGI for O=C(NC1=C(Cl)C(=O)c2ccccc2C1=O)c1ccccc1 ?
RESULT: > 100 µM

QUERY: Quick one: TGI of CCN1C(=O)/C(=C/c2c(Cl)[nH]c3cc(C)c(OC)cc23)c2ccccc21 ?
RESULT: 24.1 µM

QUERY: Could you tell me which TGI is on file for CCOP(=Nc1ccc(N(C)C)cc1)(OCC)OCC ?
RESULT: > 100 µM

QUERY: Sample CC1(C)N=C(N)N=C(N)N1c1ccc(CCC(=O)Nc2ccc(S(=O)(=O)F)cc2)c(Cl)c1 — what was its TGI?
RESULT: > 100 µM

QUERY: TGI lookup needed for O=C1NC(=S)S/C1=C/c1ccc2c(c1)OCO2 , thanks.
RESULT: > 100 µM

QUERY: Bench note: what TGI did CC(=O)OCC1OC(N2C(C)=C(C(C)=O)C(c3ccc(Cl)cc3)C(C#N)=C2S)C(OC(C)=O)C(OC(C)=O)C1OC(C)=O (configuration not stated) show?
RESULT: > 100 µM

QUERY: Dear colleague, I am looking for the recorded TGI of the following molecule: CN(C)C/C=C/C(=O)Nc1ccc(C(=O)N[C@@]2(C)CCC[C@@H](Nc3ncc(Cl)c(-c4c[nH]c5ccccc45)n3)C2)nc1
RESULT: 0.0244 µM

QUERY: Which TGI value is on record for Cc1ccc(C(=O)O)c(/C=C2\Cc3ccc(C)cc3C2=O)c1 ?
RESULT: 53.3 µM

QUERY: Would you kindly share the measured TGI for CS(=O)(=O)C(C#N)c1nc2ccccc2nc1Cl (configuration not stated) ?
RESULT: > 100 µM
